Provenance of the data: patent US7608716B2

This section presents compounds with their documented melting point values.
PROPERTY: melting point

1. O=c1c2c(CCc3ccccc3[N+](=O)[O-])n[nH]c2c2cccnc2n1-c1ccccc1 (hydrate or solvate) [Example 16] :: 333 to 335 °C
2. COc1cc(Cc2n[nH]c3c2c(=O)n(-c2ccccc2)c2ncccc32)cc(OC)c1 (hydrate or solvate) [Example 29] :: 258 to 259 °C
3. COc1ccccc1Cc1n[nH]c2c1c(=O)n(-c1ccccc1)c1ncccc21 (hydrate or solvate) [Example No. 22] :: 276 to 277 °C
4. O=c1c2c(Cc3ccccc3[N+](=O)[O-])n[nH]c2c2cccnc2n1-c1ccccc1 (hydrate or solvate) [Example No. 26] :: 318 to 320 °C (dec.)
5. O=c1c2c(CCc3cc[n+]([O-])cc3)n[nH]c2c2cccnc2n1-c1ccccc1 [Example No. 5] :: 285 °C (dec.)
6. Nc1ccc(CCc2n[nH]c3c2c(=O)n(-c2ccccc2)c2ncccc32)cc1 (hydrate or solvate) [Example No. 13] :: > 310 °C
7. O=c1c2c(Cc3ccccc3O)n[nH]c2c2cccnc2n1-c1ccccc1 [Example 42] :: 278 to 280 °C

---

- Tested on: actively sensitized guinea pigs
- ASSAY_PROCEDURE: Inhibition of antigen-induced immediate asthmatic response (airway resistance, Konzett-Rossler)
- Type: in vivo, Hartley guinea pigs
- CONDITION_NOTES: Cavia porcellus, oral, 60 minutes prior to antigen-challenge, reduction of increase in airway resistance, read-out: Inhibition of Asthmatic response ED50: mg/kg orally
PROPERTY: ED50 (mg/kg)

1. O=C(Nc1c(Cl)cncc1Cl)c1ccc(OC(F)F)c(OCC2CC2)c1 [Roflumilast, reference compound] :: 0.66
2. O=c1c2c(Cc3ccccc3)n[nH]c2c2cccnc2n1-c1ccccc1 :: 0.16
3. O=c1c2c(Cc3ccc(F)cc3)n[nH]c2c2cccnc2n1-c1ccccc1 :: 0.33
4. COc1ccc(C2CNC(=O)C2)cc1OC1CCCC1 (single isomer, unassigned; (-)) :: 0.51
